assay: Toxicity liver stage against HepG2, at 10uM; assay type: cell-based; set-up: test concentration 10 uM, cell line HepG2-A16-CD81EGFP; conditions: human, HepG2-A16-CD81EGFP cells; read-out: INHIBITION
experimental.readout: cytotoxicity at 10 µM (%)
Form entry: value (%) — number only.

// solved cases for cytotoxicity at 10 µM follow
# molecule, unit, cytotoxicity at 10 µM
measured = [
    ("Cc1noc(C)c1C(=O)NCc1ccc(N2CCCCCC2)nc1", "%", 2.76),
    ("Cc1cc(CN(C)C(=O)NC(C)Cc2ccco2)no1 (stereo unspecified)", "%", 6.62),
    ("CCc1ccc(C(NC(=O)CCS(C)(=O)=O)C(C)(C)C)o1 (stereo unspecified)", "%", -3.58),
    ("CS(=O)(=O)N1CCC2(CCN(Cc3nccs3)CC2)CC1", "%", 8.28),
    ("COCc1nc(C(=O)N2CCCC2c2noc(C)n2)cs1 (stereo unspecified)", "%", -12),
]

So what's the measured cytotoxicity at 10 µM for this one? `CS(=O)(=O)NC[C@]12COC[C@H]1CN(C(=O)C1CCSCC1)C2`
-112

How about this molecule: `CC(C)c1nnc2n1CCN(C(=O)Cc1csc(C(C)(C)C)n1)C2`
-4.54

Same question, `Cc1nc(-c2ccccc2)sc1CNC(=O)c1ccc(=O)n(C)c1` this time
-6.09

// next record CNC(=O)c1ccc(C2CN(C(=O)c3c[nH]nc3C)CCO2)nc1 (stereo unspecified)
-19.3

Would you kindly repeat that for CCCOC1CCCN(C(=O)c2[nH]nc(C)c2Br)C1 (stereo unspecified) ?
0.595

Can you check Cc1cccnc1NC(=O)C1CCN(C(C)C(=O)NC(C)(C)C)CC1 (stereo unspecified) next?
3.15

src = ChEMBL document CHEMBL4513216
